Tested on: RAW-Dual (murine macrophage reporter line)
Assay Notes: NF-kB reporter (SEAP) activity fold change vs agonist alone; higher = enhanced NF-kB activity
Study Conditions: modulator concentration 10 µM; agonist: CpG ODN 1826 0.5 ug/mL
If the reported NF-kB reporter equals or exceeds 1, assign Fulfilled. If not, assign Not fulfilled.

Threshold query (NF-kB reporter >= 1) on COc1cc(C=NNC(=O)c2ccc(OC)c(OC)c2)ccc1O Not fulfilled

Threshold query (NF-kB reporter >= 1) on CCN(CC)c1ccc(C=C(C#N)C#N)c(OC(C)=O)c1 Fulfilled

Threshold query (NF-kB reporter >= 1) on OC(Cn1cncn1)(Cn1cncn1)c1ccc(F)cc1F Not fulfilled

Threshold query (NF-kB reporter >= 1) on O=C(CSc1nc(-c2ccccc2)c(-c2ccccc2)[nH]1)N1CCOCC1 Fulfilled

Threshold query (NF-kB reporter >= 1) on O=[N+]([O-])c1cc2c(cc1C=Nc1ccc(O)cc1)OCO2 Not fulfilled

Threshold query (NF-kB reporter >= 1) on C=C1C(=O)OC2C1CCC(C)=CCCC1(C)OC21 (centres undefined) Not fulfilled

Threshold query (NF-kB reporter >= 1) on CC(C)(C)NCC(O)COc1cccc2c1C[C@H](O)[C@H](O)C2 (some centres undefined) Fulfilled

Threshold query (NF-kB reporter >= 1) on COC(=O)C1=C(C)N(c2ccc(Br)cc2)C(=O)C1=Cc1ccc(O)cc1 Fulfilled

###

Test system: RAW-Dual (murine macrophage reporter line)
Assay Notes: IRF reporter (Lucia luciferase) activity fold change vs agonist alone; higher = enhanced IRF activity
Study Conditions: modulator concentration 10 µM; agonist: LPS 0.1 ug/mL
Result Type: IRF reporter

Could you tell me which IRF reporter is on file for Oc1cccc(C=Nc2ccc(N=Cc3cccc(O)c3O)cc2)c1O ? 0.93

Could you tell me which IRF reporter is on file for O=C(CCC1CCCCC1)Nc1ccc(Br)cc1 ? 0.922

Could you tell me which IRF reporter is on file for CC(C)CN(C[C@@H](O)[C@H](Cc1ccccc1)NC(=O)O[C@H]1CO[C@H]2OCC[C@H]21)S(=O)(=O)c1ccc(N)cc1.CCO ? 0.982

Could you tell me which IRF reporter is on file for COC(=O)C1=CN(C2CC2)C=C(C(=O)OC)C1c1ccccc1Cl ? 0.905

Could you tell me which IRF reporter is on file for CC(=NNC(N)=S)C1=CC(C)(C)CCC1 ? 1.17

Could you tell me which IRF reporter is on file for CC(C)c1ccccc1NC(=O)C1COCC(=O)N1Cc1ccccc1 (stereo unspecified) ? 1.15

###

Test system: RAW-Dual (murine macrophage reporter line)
Assay Notes: viability score (confluency relative to resting cells, overnight) (fraction); higher = more viable, active = viable (0.7 or more)
Study Conditions: modulator concentration 10 µM
Exercise: state measured viability score for each of the compounds provided.
Respond using a number only.

Provide value of viability score for this record tested with RAW-Dual (murine macrophage reporter line): Cc1ccc(C(=O)N2N=C(c3ccc(Cl)cc3)CC2(O)C(F)(F)F)o1 (stereo not given) 1

Provide value of viability score for this record tested with RAW-Dual (murine macrophage reporter line): NS(=O)(=O)c1ccc(F)cc1 1.02

Provide value of viability score for this record tested with RAW-Dual (murine macrophage reporter line): O=C(Cc1ccccc1)NC(NC(=S)Nc1ccc(O)cc1)C(Cl)(Cl)Cl (stereo not given) 1.02

Provide value of viability score for this record tested with RAW-Dual (murine macrophage reporter line): O=C(NCCCn1ccc2cccnc21)c1cccc(Br)c1 0.98

Provide value of viability score for this record tested with RAW-Dual (murine macrophage reporter line): Cc1ccc(Cn2c(N)nc3ccccc32)cc1 0.702

Provide value of viability score for this record tested with RAW-Dual (murine macrophage reporter line): COc1c(OC)c2occc2c2oc(=O)ccc12 0.968

Provide value of viability score for this record tested with RAW-Dual (murine macrophage reporter line): Nc1nc(N)nc(-c2cc(Cl)ccc2Cl)n1 0.986

Provide value of viability score for this record tested with RAW-Dual (murine macrophage reporter line): O=c1c(-c2ccc(O)cc2)coc2cc(O)cc(O)c12 0.945

Provide value of viability score for this record tested with RAW-Dual (murine macrophage reporter line): O=C1OCCN1C1CCN(C(=O)C2(c3ccc(F)cc3)CC2)C1 (stereo not given) 0.951

Provide value of viability score for this record tested with RAW-Dual (murine macrophage reporter line): Cc1cccc2sc(NNC(=O)c3ccc(S(=O)(=O)N4CCc5ccccc5C4)cc3)nc12 0.995

Provide value of viability score for this record tested with RAW-Dual (murine macrophage reporter line): c1ccc(-c2cc3c4cccn4ccn3c2)cc1 1.04

Provide value of viability score for this record tested with RAW-Dual (murine macrophage reporter line): CC(=O)N[C@H]1[C@H]([C@H](O)[C@H](O)CO)OC(C(=O)O)=C[C@@H]1NC(=N)N 1.01

Provide value of viability score for this record tested with RAW-Dual (murine macrophage reporter line): Cc1ccc(-n2c(=O)c3c4c(sc3n3c(S)nnc23)CCCC4)cc1 0.993

Provide value of viability score for this record tested with RAW-Dual (murine macrophage reporter line): CC(=NNC(=O)CNc1ccccc1C)c1ccc(Br)cc1 0.982

Provide value of viability score for this record tested with RAW-Dual (murine macrophage reporter line): CC(=O)O.NCc1ccc(S(N)(=O)=O)cc1 1.01

Provide value of viability score for this record tested with RAW-Dual (murine macrophage reporter line): Cc1cccc(C)c1OCC(C)N.Cl (stereo not given) 0.968

Provide value of viability score for this record tested with RAW-Dual (murine macrophage reporter line): CC(=O)CCc1oc2ccc([N+](=O)[O-])cc2c1-c1ccc(C)o1 0.973

Provide value of viability score for this record tested with RAW-Dual (murine macrophage reporter line): FC(F)(F)c1nnc2ccc(NC3CCN(c4ncnc5c4CCCC5)CC3)nn12 0.972

Provide value of viability score for this record tested with RAW-Dual (murine macrophage reporter line): O=C(CC1Sc2ccccc2NC1=O)Nc1ccccc1Cl (stereo not given) 1

Provide value of viability score for this record tested with RAW-Dual (murine macrophage reporter line): Cc1cccc(N=c2scc(-c3ccc([N+](=O)[O-])cc3)n2-c2cccc(C)c2C)c1C 1

Provide value of viability score for this record tested with RAW-Dual (murine macrophage reporter line): CS(=O)(=O)C1CCN(C(=O)C2(c3ccccc3)CCOCC2)C1 (stereo not given) 1.02

Provide value of viability score for this record tested with RAW-Dual (murine macrophage reporter line): Cc1c(Cl)ccc2c1NC(C(=O)O)C1CC=CC21 (stereo not given) 0.994

Provide value of viability score for this record tested with RAW-Dual (murine macrophage reporter line): O=C(NCCN1CCOCC1)c1ccc(Cl)cc1 0.992

Provide value of viability score for this record tested with RAW-Dual (murine macrophage reporter line): COc1cc(O)c(C(=O)Nc2nc(C(=O)NCCN(C(C)C)C(C)C)cs2)cc1OC.Cl.O.O.O 0.997

Provide value of viability score for this record tested with RAW-Dual (murine macrophage reporter line): COC(=O)C1=COC(OC2OC(CO)C(O)C(O)C2O)C2C1CC(O)C2C (stereo not given) 0.998

Provide value of viability score for this record tested with RAW-Dual (murine macrophage reporter line): O=C(CCc1ccc(F)c(Cl)c1)NCCn1nccn1 0.992

Provide value of viability score for this record tested with RAW-Dual (murine macrophage reporter line): COc1cc2c(cc1OC)C(=S)NC1(CCCC1)C2 0.596

Provide value of viability score for this record tested with RAW-Dual (murine macrophage reporter line): CCN(CC)c1ccc(C=NNC(=O)c2ccncc2)cc1 0.991

Provide value of viability score for this record tested with RAW-Dual (murine macrophage reporter line): Cc1c(C(=O)Nc2ccc(N3C[C@@H](C)O[C@@H](C)C3)nc2)cccc1-c1ccc(OC(F)(F)F)cc1 0.824

Provide value of viability score for this record tested with RAW-Dual (murine macrophage reporter line): CN1CCN(c2ccc(-c3cccc(NC(=O)c4ccc5ccccc5c4)c3)nn2)CC1 0.171

Provide value of viability score for this record tested with RAW-Dual (murine macrophage reporter line): Cc1cc(C(=O)Nc2ccccc2S(C)(=O)=O)no1 1

Provide value of viability score for this record tested with RAW-Dual (murine macrophage reporter line): CC(C)(C)c1cc(C(=O)NN=Cc2ccc([N+](=O)[O-])cc2)[nH]n1 1.01

Provide value of viability score for this record tested with RAW-Dual (murine macrophage reporter line): Cc1ccc(N2C(=O)C(=CC3CC=CCC3)SC2=S)cc1 (stereo not given) 0.973

Provide value of viability score for this record tested with RAW-Dual (murine macrophage reporter line): Fc1ccccc1C=NNc1nc(-c2ccccc2)cc(-c2ccccc2)n1 1

Provide value of viability score for this record tested with RAW-Dual (murine macrophage reporter line): Cc1cc(Nc2cc(CN3CCOCC3)c3nc(C)c(Cc4ccc(Cl)cc4F)n3n2)[nH]n1 0.0653

###

Tested on: RAW-Dual (murine macrophage reporter line)
Assay Notes: IRF reporter (Lucia luciferase) activity fold change vs agonist alone; higher = enhanced IRF activity
Study Conditions: modulator concentration 10 µM; agonist: MPLA […]
Result Type: IRF reporter
Respond using a number only.

Could you tell me which IRF reporter is on file for CS(=O)(=O)O.O=C(NC1CCN(CCCCC2(C(=O)NCC(F)(F)F)c3ccccc3-c3ccccc32)CC1)c1ccccc1-c1ccc(C(F)(F)F)cc1 ? 0.0401

Could you tell me which IRF reporter is on file for Cl.Cl.Fc1ccc(C(c2ccc(F)cc2)N2CCN(CC=Cc3ccccc3)CC2)cc1 ? 1.1

Could you tell me which IRF reporter is on file for COc1cc(C(=O)Nc2ccc(-c3ccc(N4CCC(C)CC4)nn3)cc2)cc(OC)c1OC ? 1.59

Could you tell me which IRF reporter is on file for CCc1nc2ccccc2[nH]1 ? 1.44

Could you tell me which IRF reporter is on file for Cc1cc2c(s1)Nc1ccccc1N=C2N1CCN(C)CC1 ? 0.974

Could you tell me which IRF reporter is on file for Cl.O=S(=O)(c1cccc2cnccc12)N1CCCNCC1 ? 0.558

Could you tell me which IRF reporter is on file for O=[N+]([O-])c1ccccc1S(=O)(=O)NCc1ccc2c(c1)OCO2 ? 1.09

Could you tell me which IRF reporter is on file for Brc1ccc(-c2cc(-c3ccccc3)nc(N3CCOCC3)n2)cc1 ? 1.59

Could you tell me which IRF reporter is on file for O=S1(=O)CCC(NCc2ccccc2C(F)(F)F)C1 (stereo not drawn) ? 1.04

Could you tell me which IRF reporter is on file for Cc1ccc(Sc2ccccc2N2CCNCC2)c(C)c1 ? 2.42

Could you tell me which IRF reporter is on file for O=S(=O)(Oc1cccc2ccccc12)c1ccc(F)cc1 ? 1.12

Could you tell me which IRF reporter is on file for COC(=O)C1=CN(CC2CCCO2)C=C(C(=O)OC)C1c1ccc(F)cc1 (stereo not drawn) ? 0.961

Could you tell me which IRF reporter is on file for Cc1nc(C(=O)NCC(=O)O)c(O)c2ccc(Oc3ccccc3)cc12 ? 0.97

Data provenance is the supplement of paper PMC10646978.
